Here the recorded enrichment ratio is given for each entry.
B1: PhoQ; a variant is named by its letters at X, in order, P23837 (parent)
chain: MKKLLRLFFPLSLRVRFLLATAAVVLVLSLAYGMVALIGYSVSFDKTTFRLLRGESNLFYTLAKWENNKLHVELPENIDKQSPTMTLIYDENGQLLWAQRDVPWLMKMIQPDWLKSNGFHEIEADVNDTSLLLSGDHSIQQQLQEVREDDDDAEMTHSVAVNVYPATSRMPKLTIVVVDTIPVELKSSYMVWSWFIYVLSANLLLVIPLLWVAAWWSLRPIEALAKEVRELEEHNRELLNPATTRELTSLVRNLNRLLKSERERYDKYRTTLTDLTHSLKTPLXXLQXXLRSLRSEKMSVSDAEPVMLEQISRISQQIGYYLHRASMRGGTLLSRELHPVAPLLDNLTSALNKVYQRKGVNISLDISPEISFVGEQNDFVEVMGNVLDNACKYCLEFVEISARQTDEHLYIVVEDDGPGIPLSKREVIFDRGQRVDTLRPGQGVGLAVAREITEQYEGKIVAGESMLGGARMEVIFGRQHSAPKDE

Variants of: B1
Experiment: enrichment ratio after two sorts for PhoP signalling (ratio (wild type AVST 3.29)); higher = more functional
Conditions: with PhoP (E. coli)
Whole data set: some 140,000 sequences, median “enrichment ratio after two sorts for PhoP signalling” near 0, cut for the highest 2% near 11. This excerpt belongs to a sample that is enriched for the highest values.

Below, 2 variants whose answers are already recorded.
{"variant": "IMSG", "value_type": "enrichment ratio", "measured_value": "≤ 0.25"}
{"variant": "KGAD", "value_type": "enrichment ratio", "measured_value": "≤ 0.25"}

-- ask Give the measured enrichment ratio of WNMS .
-- reply ≤ 0.25

-- ask Try this variant too: AALK
-- reply 12

-- ask Try this variant too: AQTH
-- reply ≤ 0.25

-- ask Try this variant too: MMLC
-- reply ≤ 0.25

-- ask Try this variant too: NAMK
-- reply ≤ 0.25

-- ask Try this variant too: MCYI
-- reply 27.7

-- ask Try this variant too: GEFC
-- reply ≤ 0.25

-- ask Try this variant too: TKWP
-- reply ≤ 0.25

-- ask Try this variant too: TGCH
-- reply 10.6

-- ask Try this variant too: WICH
-- reply ≤ 0.25

-- ask Try this variant too: AVQL
-- reply ≤ 0.25

-- ask Try this variant too: AIMK
-- reply ≤ 0.25

-- ask Try this variant too: KAHM
-- reply ≤ 0.25

-- ask Try this variant too: MCAY
-- reply 4.41

-- ask Try this variant too: YTLK
-- reply ≤ 0.25

-- ask Try this variant too: YTCW
-- reply ≤ 0.25

-- ask Try this variant too: KHNK
-- reply ≤ 0.25

-- ask Try this variant too: GEIS
-- reply 20.8
